- PROCEDURE_DETAILS: Plasma pharmacokinetics in rats after a 30-min intravenous infusion of Kang-Ai injection
- Format: in vivo, Sprague–Dawley rats
- CONDITION_PARAMETERS: male, Sprague-Dawley, rat, in vivo, iv, AUC0–12h
MEASUREMENT_NAME: AUC(0-t)

## Input Dear colleague, please send me the reported AUC(0-t) for CC(C)=CCC[C@](C)(O)[C@H]1CC[C@]2(C)[C@@H]1[C@H](O)C[C@@H]1[C@@]3(C)CC[C@H](O)C(C)(C)[C@@H]3[C@@H](O[C@@H]3O[C@H](CO)[C@@H](O)[C@H](O)[C@H]3O[C@@H]3O[C@@H](C)[C@H](O)[C@@H](O)[C@H]3O)C[C@]12C [Compound C5, Ginsenoside Rg2] when you can.
## Output > 100 nM·h

----------
Listing of recorded fe-U,0–12h (fraction of dose excreted into urine) by entry.
- PROCEDURE_DETAILS: Urinary (renal) excretion in rats after a 30-min infusion of Kang-Ai injection
- Type: in vivo, Sprague–Dawley rats
- CONDITION_PARAMETERS: rat, in vivo, iv
Write the number in % without appending the unit.

The examples below pair each entry with its known result.
## Input Dear colleague, please send me the reported fe-U,0–12h (fraction of dose excreted into urine) for O=C1CCCC2=C3CCC[N+]4([O-])CCC[C@@H](CN12)[C@@H]34 (some centres unmarked) [Compound A7, Leontalbinine N-oxide] when you can.
## Output 61.05

## Input Dear colleague, please send me the reported fe-U,0–12h (fraction of dose excreted into urine) for CC(C)=CCC[C@](C)(O[C@@H]1O[C@H](CO[C@@H]2O[C@H](CO)[C@@H](O)[C@H](O)[C@H]2O)[C@@H](O)[C@H](O)[C@H]1O)[C@H]1CC[C@]2(C)[C@@H]1[C@H](O)C[C@@H]1[C@@]3(C)CC[C@H](O)C(C)(C)[C@@H]3[C@@H](O[C@@H]3O[C@H](CO)[C@@H](O)[C@H](O)[C@H]3O)C[C@]12C [Compound C12, Notoginsenoside R3] when you can.
## Output 36.16

## Input Dear colleague, please send me the reported fe-U,0–12h (fraction of dose excreted into urine) for CC(C)=CCC[C@](C)(O)[C@H]1CC[C@]2(C)[C@@H]1[C@H](O)C[C@@H]1[C@@]3(C)CC[C@H](O)C(C)(C)[C@@H]3[C@@H](O[C@@H]3O[C@H](CO)[C@@H](O)[C@H](O)[C@H]3O[C@@H]3OC[C@@H](O)[C@H](O)[C@H]3O)C[C@]12C [Compound C3, Notoginsenoside R2] when you can.
## Output 10.27

## Input Dear colleague, please send me the reported fe-U,0–12h (fraction of dose excreted into urine) for CC(C)=CCC[C@](C)(O[C@@H]1O[C@H](CO[C@@H]2O[C@@H](CO)[C@H](O)[C@H]2O)[C@@H](O)[C@H](O)[C@H]1O)[C@H]1CC[C@]2(C)[C@@H]1[C@H](O)C[C@@H]1[C@@]3(C)CC[C@H](O)C(C)(C)[C@@H]3[C@@H](O[C@@H]3O[C@H](CO)[C@@H](O)[C@H](O)[C@H]3O)C[C@]12C [Compound C11, Ginsenoside Re4] when you can.
## Output 48.30

The record that follows has no fe-U,0–12h (fraction of dose excreted into urine) shown yet.
## Input Dear colleague, please send me the reported fe-U,0–12h (fraction of dose excreted into urine) for O=C1C=CC[C@@H]2[C@H]3C[C@H](O)CN4CCC[C@@H](CN12)[C@@H]34 [Compound A6, 9α-hydroxysophocarpine] when you can.
## Output 12.92

----------
- PROCEDURE_DETAILS: Stability tests of analytes in rat plasma QC samples
- Type: in vitro ADME
- CONDITION_PARAMETERS: rat plasma, nominal conc. 100 nM
Listing of recorded At -80 °C for 48 h, Mean±SD by entry.

## Input Dear colleague, please send me the reported At -80 °C for 48 h, Mean±SD for CC(C)=CCC[C@](C)(O)[C@H]1CC[C@]2(C)[C@@H]1[C@H](O)C[C@@H]1[C@@]3(C)CC[C@H](O)C(C)(C)[C@@H]3[C@@H](O[C@@H]3O[C@H](CO)[C@@H](O)[C@H](O)[C@H]3O[C@@H]3O[C@H](CO)[C@@H](O)[C@H](O)[C@H]3O)C[C@]12C [Compound C7, Ginsenoside Rf] when you can.
## Output 100.58 ± 11.11 nM

## Input Dear colleague, please send me the reported At -80 °C for 48 h, Mean±SD for CC(C)=CCC[C@](C)(O[C@@H]1O[C@H](CO[C@@H]2O[C@H](CO)[C@@H](O)[C@H](O)[C@H]2O)[C@@H](O)[C@H](O)[C@H]1O)[C@H]1CC[C@]2(C)[C@@H]1[C@H](O)C[C@@H]1[C@@]3(C)CC[C@H](O[C@@H]4O[C@H](CO)[C@@H](O)[C@H](O)[C@H]4O[C@@H]4O[C@H](CO)[C@@H](O)[C@H](O)[C@H]4O)C(C)(C)[C@@H]3CC[C@]12C [Compound D5, Ginsenoside Rb1] when you can.
## Output 94.32 ± 8.04 nM

## Input Dear colleague, please send me the reported At -80 °C for 48 h, Mean±SD for CC(C)=CCC[C@](C)(O)[C@H]1CC[C@]2(C)[C@@H]1[C@H](O)C[C@@H]1[C@@]3(C)CC[C@H](O)C(C)(C)[C@@H]3[C@@H](O[C@@H]3O[C@H](CO)[C@@H](O)[C@H](O)[C@H]3O[C@@H]3O[C@@H](C)[C@H](O)[C@@H](O)[C@H]3O)C[C@]12C [Compound C5, Ginsenoside Rg2] when you can.
## Output 96.95 ± 8.62 nM

----------
- PROCEDURE_DETAILS: Plasma pharmacokinetics in rats after a 30-min intravenous infusion of Kang-Ai injection
- Assay type: in vivo, Sprague–Dawley rats
- CONDITION_PARAMETERS: rat plasma; 30-min iv infusion of Kang-Ai injection 6 mL/kg
Listing of recorded t1/2 by entry.
Write the number in h without appending the unit.

The examples below pair each entry with its known result.
## Input Dear colleague, please send me the reported t1/2 for CC(C)=CCC[C@](C)(O[C@@H]1O[C@H](CO)[C@@H](O)[C@H](O)[C@H]1O)[C@H]1CC[C@]2(C)[C@@H]1[C@H](O)C[C@@H]1[C@@]3(C)CC[C@H](O)C(C)(C)[C@@H]3[C@@H](O[C@@H]3O[C@H](CO)[C@@H](O)[C@H](O)[C@H]3O[C@@H]3OC[C@@H](O)[C@H](O)[C@H]3O)C[C@]12C [Compound C8, Notoginsenoside R1] when you can.
## Output 0.75

## Input Dear colleague, please send me the reported t1/2 for CC(C)(O)[C@@H]1CC[C@](C)([C@H]2[C@@H](O)C[C@@]3(C)[C@@H]4C[C@H](O[C@@H]5O[C@H](CO)[C@@H](O)[C@H](O)[C@H]5O)[C@H]5C(C)(C)[C@@H](O[C@@H]6OC[C@@H](O)[C@H](O)[C@H]6O)CC[C@@]56C[C@@]46CC[C@]23C)O1 [Compound B2, Astragaloside IV] when you can.
## Output 1.64

## Input Dear colleague, please send me the reported t1/2 for O=c1cccc2n1C[C@H]1C[C@@H]2CN2CC[C@H](O)C[C@H]12 when you can.
## Output 2.15

Continuing:
## Input Dear colleague, please send me the reported t1/2 for CC(C)(O)[C@@H]1CC[C@](C)([C@H]2[C@@H](O)C[C@@]3(C)[C@@H]4C[C@H](O)[C@H]5C(C)(C)[C@@H](O[C@@H]6OC[C@@H](O)[C@H](O)[C@H]6O[C@@H]6O[C@H](CO)[C@@H](O)[C@H](O)[C@H]6O)CC[C@@]56C[C@@]46CC[C@]23C)O1 [Compound B3, Astragaloside III] when you can.
## Output 0.33

----------
- PROCEDURE_DETAILS: Stability tests of analytes in rat plasma QC samples
- Type: in vitro ADME
- CONDITION_PARAMETERS: rat plasma, nominal conc. 20 nM
MEASUREMENT_NAME: Three freeze-thaw cycles (-80 °C ↔ 23 °C), Mean±SD (nM)
Write the number in nM without appending the unit.

The examples below pair each entry with its known result.
## Input Dear colleague, please send me the reported Three freeze-thaw cycles (-80 °C ↔ 23 °C), Mean±SD for CC(C)(O)[C@@H]1CC[C@](C)([C@H]2[C@@H](O)C[C@@]3(C)[C@@H]4C[C@H](O)[C@H]5C(C)(C)[C@@H](O[C@@H]6OC[C@@H](O)[C@H](O)[C@H]6O[C@@H]6O[C@H](CO)[C@@H](O)[C@H](O)[C@H]6O)CC[C@@]56C[C@@]46CC[C@]23C)O1 [Compound B3, Astragaloside III] when you can.
## Output 19.24

## Input Dear colleague, please send me the reported Three freeze-thaw cycles (-80 °C ↔ 23 °C), Mean±SD for CC(C)=CCC[C@](C)(O[C@@H]1O[C@H](CO)[C@@H](O)[C@H](O)[C@H]1O)[C@H]1CC[C@]2(C)[C@@H]1[C@H](O)C[C@@H]1[C@@]3(C)CC[C@H](O[C@@H]4O[C@H](CO)[C@@H](O)[C@H](O)[C@H]4O[C@@H]4O[C@H](CO)[C@@H](O)[C@H](O)[C@H]4O)C(C)(C)[C@@H]3CC[C@]12C [Compound D2, Ginsenoside Rd] when you can.
## Output 21.38

## Input Dear colleague, please send me the reported Three freeze-thaw cycles (-80 °C ↔ 23 °C), Mean±SD for CC(C)=CCC[C@](C)(O)[C@H]1CC[C@]2(C)[C@@H]1[C@H](O)C[C@@H]1[C@@]3(C)CC[C@H](O)C(C)(C)[C@@H]3[C@@H](O[C@@H]3O[C@H](CO)[C@@H](O)[C@H](O)[C@H]3O)C[C@]12C [Compound C1, Ginsenoside Rh1] when you can.
## Output 20.14

Continuing:
## Input Dear colleague, please send me the reported Three freeze-thaw cycles (-80 °C ↔ 23 °C), Mean±SD for O=C1CCC[C@@H]2[C@H]3CCCN4CCC[C@@H](CN12)[C@@H]34 [Compound A1, Matrine] when you can.
## Output 20.11
